So I've got a bunch of binders here, and I need their Kd values.
# System: HIRA(1–405), untagged (HIRA WD repeats) (human, UniProt P54198 1-405)
# Sequence (P54198 1-405): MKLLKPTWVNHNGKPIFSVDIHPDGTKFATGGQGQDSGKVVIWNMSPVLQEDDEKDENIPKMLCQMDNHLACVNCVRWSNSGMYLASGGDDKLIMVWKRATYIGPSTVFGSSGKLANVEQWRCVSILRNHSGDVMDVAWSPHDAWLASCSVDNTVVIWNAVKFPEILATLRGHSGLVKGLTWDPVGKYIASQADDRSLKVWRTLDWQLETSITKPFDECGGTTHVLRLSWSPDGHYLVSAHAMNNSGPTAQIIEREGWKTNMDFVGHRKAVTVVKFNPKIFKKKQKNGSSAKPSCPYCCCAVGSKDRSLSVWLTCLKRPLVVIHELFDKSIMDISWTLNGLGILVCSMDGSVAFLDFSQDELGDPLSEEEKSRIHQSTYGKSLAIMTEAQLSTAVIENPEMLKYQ
# Assay Details: AUC
Only the number, expressed in nM, is required.

Input 6His-UBN1(41–175) (domain or fragment, human, UniProt Q9NPG3 41-175, looked up) AAAAVRITLTLFEPDHKRCPEFFYPELVKNIRGKVKGLQPGDKKKDLSDPFNDEEKERHKVEALARKFEEKYGGKKRRKDRIQDLIDMGYGYDESDSFIDNSEAYDELVPASLTTKYGGFYINSGTLQFRQASES . Output Kd: 13.3

Input 6His-UBN1(41–119) (domain or fragment, human, UniProt Q9NPG3 41-119, looked up) AAAAVRITLTLFEPDHKRCPEFFYPELVKNIRGKVKGLQPGDKKKDLSDPFNDEEKERHKVEALARKFEEKYGGKKRRK . Output Kd: 6.5

These entries and their values trace back to paper PMC3320765.
